This collection of values is drawn from patent US20210047278A1.

System Tested: FBW7^ARG+pCycE (Homo sapiens, UniProt Q969H0, R505L)
Construct: GST (TEV site and flexible linker) (N, cleaved yes); made in house; host or cells: SF9 insect cells (baculovirus)
Sequence (Q969H0 64-707 R505L): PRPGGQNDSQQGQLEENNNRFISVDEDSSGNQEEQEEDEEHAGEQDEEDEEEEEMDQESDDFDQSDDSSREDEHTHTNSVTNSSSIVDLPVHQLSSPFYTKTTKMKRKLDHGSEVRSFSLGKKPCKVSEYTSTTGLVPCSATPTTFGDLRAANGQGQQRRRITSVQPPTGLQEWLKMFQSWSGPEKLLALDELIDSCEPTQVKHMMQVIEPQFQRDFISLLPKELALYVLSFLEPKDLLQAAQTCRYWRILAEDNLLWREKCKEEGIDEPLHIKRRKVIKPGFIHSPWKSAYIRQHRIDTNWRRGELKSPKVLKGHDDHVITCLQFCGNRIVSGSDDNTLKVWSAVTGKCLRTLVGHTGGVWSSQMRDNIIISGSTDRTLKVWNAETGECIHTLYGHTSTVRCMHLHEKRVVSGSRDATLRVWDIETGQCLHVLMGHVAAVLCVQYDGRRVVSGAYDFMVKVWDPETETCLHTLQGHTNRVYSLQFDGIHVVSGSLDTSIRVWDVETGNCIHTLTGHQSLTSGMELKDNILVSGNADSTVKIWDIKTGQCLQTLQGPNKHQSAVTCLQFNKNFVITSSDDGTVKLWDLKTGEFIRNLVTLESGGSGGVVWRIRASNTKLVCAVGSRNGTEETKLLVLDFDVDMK
Sequence (P63208 2-163 partner): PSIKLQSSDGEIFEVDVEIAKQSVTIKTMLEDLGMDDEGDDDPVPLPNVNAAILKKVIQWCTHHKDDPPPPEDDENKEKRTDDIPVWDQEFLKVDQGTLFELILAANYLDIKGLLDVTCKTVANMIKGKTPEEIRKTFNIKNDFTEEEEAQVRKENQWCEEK
Assay Remarks: FBW7^ARG-cyclin E agonist ALPHAscreen (primary PRUN, confirmation CRUN1, dose-response DRUN)
Type: binding
Test Conditions: DRUN dose-response, triplicate, 10 point 3-fold dilution, max approx. 87 μM; read-out: FBW7 ACT Final EC50, Molar
pEC50: −log10 of the molar value.
Recorded pEC50 by entry

Worked cases, pEC50 given:
Cc1c(NC(=O)/C(=C\c2ccccc2)NC(=O)c2ccccc2)c(=O)n(-c2ccccc2)n1C :: < 4.25
COCCOC(=O)C1=C(C)NC2=C(C(=O)CC(c3ccccc3)C2)C1c1ccc(OCc2ccccc2)cc1 (stereo not drawn) :: < 4.29
O=C(c1ccco1)N1CCN(c2ncc(-c3ccccc3CO)n3ccnc23)CC1 :: < 4.19
Cc1ccc2nc(SCC(=O)Nc3ncc(C)s3)c(C#N)cc2c1 :: < 4.19
CCC(C)OC(=O)C1=C(C)NC2=C(C(=O)CC(c3ccccc3)C2)C1c1cccc2ccccc12 (stereo not drawn) :: < 4.32
O=c1c2cnn(-c3ccccc3)c2nnn1Cc1cccnc1 :: < 4.19

In: Would you mind telling me what pEC50 value was observed for CC(=O)NCC(c1cccs1)S(=O)(=O)c1ccc(C)cc1 (stereo not drawn) ?
Out: < 4.19

In: Would you mind telling me what pEC50 value was observed for `COc1ccccc1N1C(=O)c2ccc(C(=O)Nc3cc([N+](=O)[O-])ccc3O)cc2C1=O` ?
Out: < 4.19

In: Would you mind telling me what pEC50 value was observed for Cc1nc(C(C)NC(=O)c2cc(COc3ccc(F)cc3F)on2)cs1 (stereo not drawn) ?
Out: < 4.19

In: Would you mind telling me what pEC50 value was observed for `CSc1ccccc1C(=O)Nc1nc2nc(C)cc(C)c2s1` ?
Out: < 4.19

In: Would you mind telling me what pEC50 value was observed for `COc1cccc(C=O)c1OC(=O)c1cccc(Cl)c1` ?
Out: < 4.19

In: Would you mind telling me what pEC50 value was observed for `CC1=C(C(=O)OCc2ccccc2)C(c2cn(-c3ccccc3)nc2-c2ccc(F)cc2)C(C(=O)OCc2ccccc2)=C(C)N1` ?
Out: < 4.47

In: Would you mind telling me what pEC50 value was observed for `CCN(CC)c1ccc2cc(-c3nc(C)cs3)c(=O)oc2c1` ?
Out: < 4.19

In: Would you mind telling me what pEC50 value was observed for COc1cc2c(cc1OC)C(COc1ccc([N+](=O)[O-])cc1)N(C(=O)c1ccc3c(c1)OCO3)CC2 (stereo not drawn) ?
Out: < 4.30

In: Would you mind telling me what pEC50 value was observed for COc1ccccc1C1C(C(=O)OC2CCCC2)=C(C)NC2=C1C(=O)CC(c1ccccc1)C2 (stereo not drawn) ?
Out: < 4.34

In: Would you mind telling me what pEC50 value was observed for `O=C(NCCCN1CCc2ccccc2C1)Nc1ccc(Br)cc1` ?
Out: < 4.19

In: Would you mind telling me what pEC50 value was observed for CC1=C(C(=O)OC2CCCCC2)C(c2ccc(F)cc2)C2=C(CC(c3ccccc3)CC2=O)N1 (stereo not drawn) ?
Out: < 4.29

In: Would you mind telling me what pEC50 value was observed for `CC(C)(C)OC(=O)N/N=C\c1cccs1` ?
Out: < 4.19

In: Would you mind telling me what pEC50 value was observed for `COc1cc(-c2ccnc(N)n2)ccc1NC(=O)[C@H]1COc2ccccc2O1.O=C(O)C(F)(F)F` ?
Out: < 4.19

In: Would you mind telling me what pEC50 value was observed for COc1ccc(COC(=O)C2=C(C)NC3=C(C(=O)CC(C)(C)C3)C2c2ccccc2)cc1 (stereo not drawn) ?
Out: < 4.21

In: Would you mind telling me what pEC50 value was observed for O=C(Cc1ccc(Br)cc1)N1CCC(c2nc(O)c3cnccc3n2)C1.O=C(O)C(F)(F)F (stereo not drawn) ?
Out: < 4.19

In: Would you mind telling me what pEC50 value was observed for `CCCOc1ccc(C2C(C(=O)OC)=CN(CCOC)C=C2C(=O)OC)cc1` ?
Out: < 4.19

In: Would you mind telling me what pEC50 value was observed for `COc1cccc(/C=N/c2ccc3[nH]ncc3c2)c1O` ?
Out: < 4.19

In: Would you mind telling me what pEC50 value was observed for `Cc1cccc(CC(=O)Nc2cnn(-c3cccc(C(=O)N4CCNC(=O)CC4)c3)c2)c1` ?
Out: < 4.19

In: Would you mind telling me what pEC50 value was observed for CC1=C(C(=O)OCCc2ccccc2)C(c2ccc(Cl)cc2Cl)C2=C(CC(C)(C)CC2=O)N1 (stereo not drawn) ?
Out: < 4.34

In: Would you mind telling me what pEC50 value was observed for `Cc1cccc(NC(=O)N2CCC(c3nnc(C4CC4)s3)CC2)c1` ?
Out: < 4.19

In: Would you mind telling me what pEC50 value was observed for COc1ccc(N2C(=O)CC(SCCN)C2=O)cc1 (stereo not drawn) ?
Out: < 4.06
